# target_desc: Induced myeloid leukemia cell differentiation protein Mcl-1 (Homo sapiens, UniProt Q07820)
# Sequence (Q07820 whole entry): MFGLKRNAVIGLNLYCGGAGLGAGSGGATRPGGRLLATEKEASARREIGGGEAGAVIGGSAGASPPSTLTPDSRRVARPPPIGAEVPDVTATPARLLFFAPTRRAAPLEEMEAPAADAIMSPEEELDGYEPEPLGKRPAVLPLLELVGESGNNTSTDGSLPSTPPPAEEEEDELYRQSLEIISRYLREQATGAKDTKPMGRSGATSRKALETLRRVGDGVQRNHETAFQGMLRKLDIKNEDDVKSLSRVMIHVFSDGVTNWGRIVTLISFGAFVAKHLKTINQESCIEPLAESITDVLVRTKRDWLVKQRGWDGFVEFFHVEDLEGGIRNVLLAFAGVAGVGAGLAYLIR
# test_description: Inhibition of GST-tagged recombinant Mcl1 interaction with biotinylated Bim peptide by ELISA based competitive binding assay
pEC50: −log10 of the molar value.
Short version: pEC50 at least 6 is yes, less is no.

Worked examples, 5 compounds total:
structure_as_smiles	category
COC1=CC(c2cc3ccccc3[nH]2)=N/C1=C\c1[nH]c(C)cc1C	yes
CC(C)c1cc(-c2cc3ccccc3nc2N2CCCC2)cc2nc(N3CCCC3)ccc12	no
CCOc1ccc2c(C(C)C)cc(-c3cc4ccccc4nc3N3CCOCC3)cc2n1	no
CCCOc1ccc2c(C(C)C)cc(-c3cc4ccccc4nc3N3CCOCC3)cc2n1	no
CCOc1ccc2c(C(C)C)cc(-c3cc4ccccc4nc3N3CCCC3)cc2n1	no

Exercise: Exam item: decide whether the reported pEC50 for CCCOc1nc2ccccc2cc1-c1cc(C(C)C)c2ccc(N3CCOCC3)nc2c1 is at least 6.
Key: no

====

# target_desc: UniProt:Q16548
# Sequence (Q16548 whole entry): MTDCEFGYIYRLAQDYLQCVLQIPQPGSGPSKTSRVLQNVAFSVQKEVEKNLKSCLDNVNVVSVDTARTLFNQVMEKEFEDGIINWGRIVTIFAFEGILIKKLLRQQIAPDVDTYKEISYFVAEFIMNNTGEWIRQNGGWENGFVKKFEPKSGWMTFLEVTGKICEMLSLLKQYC
# test_description: Inhibition of GST-tagged recombinant Bfl1 interaction with biotinylated Bim peptide by ELISA based competitive binding assay
Label rule met when EC50 is strictly below 20 µM; otherwise label rule not met.

Worked examples, 2 compounds total:
structure_as_smiles	target_desc	category
CCCOc1ccc2c(C(C)C)cc(-c3cc4ccccc4nc3N3CCOCC3)cc2n1	UniProt:Q16548	rule met
CCOc1ccc2c(C(C)C)cc(-c3cc4ccccc4nc3N3CCCC3)cc2n1	UniProt:Q16548	rule not met

Exercise: Decide: EC50 of COC1=CC(c2cc3ccccc3[nH]2)=N/C1=C\c1[nH]c(C)cc1C strictly below 20 µM?
Key: rule met

Exercise: Strictly below 20 µM: is that where EC50 of CCCOc1nc2ccccc2cc1-c1cc(C(C)C)c2ccc(N3CCOCC3)nc2c1 sits?
Key: rule met

Exercise: In plain terms, does CC(C)c1cc(-c2cc3ccccc3nc2N2CCCC2)cc2nc(N3CCCC3)ccc12 come in under 20 µM for EC50?
Key: rule not met

Exercise: Given the entry CCOc1ccc2c(C(C)C)cc(-c3cc4ccccc4nc3N3CCOCC3)cc2n1 , would its reported EC50 be below 20 µM?
Key: rule not met

====

EC50 overview
# target_desc: Bcl-2-like protein 1 (Homo sapiens, UniProt Q07817)
# Sequence (Q07817 whole entry): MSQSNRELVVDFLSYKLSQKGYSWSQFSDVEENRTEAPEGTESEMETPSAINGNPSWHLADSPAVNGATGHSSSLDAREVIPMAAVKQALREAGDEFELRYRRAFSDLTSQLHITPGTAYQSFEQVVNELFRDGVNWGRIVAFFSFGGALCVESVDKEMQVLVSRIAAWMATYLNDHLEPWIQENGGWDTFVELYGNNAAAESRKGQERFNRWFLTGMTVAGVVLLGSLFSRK
# test_description: Inhibition of GST-tagged recombinant Bcl-XL interaction with biotinylated Bim peptide by ELISA based competitive binding assay
Use µM as the unit, but write only the number.

Exercise: Quick one: EC50 for CCOc1ccc2c(C(C)C)cc(-c3cc4ccccc4nc3N3CCOCC3)cc2n1 ?
Key: 14.6

Exercise: Suppose we examine the molecule CCOc1ccc2c(C(C)C)cc(-c3cc4ccccc4nc3N3CCCC3)cc2n1 ; what EC50 value has been reported?
Key: 6.2

Exercise: Fill in: EC50 of COC1=CC(c2cc3ccccc3[nH]2)=N/C1=C\c1[nH]c(C)cc1C [OBATOCLAX] is ___
Key: 0.9

====

# target_desc: Apoptosis regulator Bcl-2 (Homo sapiens, UniProt P10415)
# Sequence (P10415 whole entry): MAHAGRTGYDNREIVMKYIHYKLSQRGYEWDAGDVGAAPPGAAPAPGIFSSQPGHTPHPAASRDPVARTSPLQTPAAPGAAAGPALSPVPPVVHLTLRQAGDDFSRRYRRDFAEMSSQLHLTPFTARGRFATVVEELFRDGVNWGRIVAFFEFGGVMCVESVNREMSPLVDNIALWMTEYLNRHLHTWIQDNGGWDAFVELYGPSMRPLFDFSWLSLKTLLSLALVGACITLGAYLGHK
# test_description: Inhibition of GST-tagged recombinant Bcl2 interaction with biotinylated Bim peptide by ELISA based competitive binding assay
property_measured: pEC50
A value of pEC50 is the negative decimal logarithm of a concentration given in moles per litre.

Sample answers from the record:
compound	property_measured	value
COC1=CC(c2cc3ccccc3[nH]2)=N/C1=C\c1[nH]c(C)cc1C [OBATOCLAX]	pEC50	6.52
CCCOc1nc2ccccc2cc1-c1cc(C(C)C)c2ccc(N3CCOCC3)nc2c1	pEC50	5.18
CCOc1ccc2c(C(C)C)cc(-c3cc4ccccc4nc3N3CCOCC3)cc2n1	pEC50	5.57
CCCOc1ccc2c(C(C)C)cc(-c3cc4ccccc4nc3N3CCOCC3)cc2n1	pEC50	5.04
CCOc1ccc2c(C(C)C)cc(-c3cc4ccccc4nc3N3CCCC3)cc2n1	pEC50	5.46

Pending compound:
Exercise: Give its pEC50 value. Item: CC(C)c1cc(-c2cc3ccccc3nc2N2CCCC2)cc2nc(N3CCCC3)ccc12
Key: 5.85

====

# target_desc: Bcl-2-like protein 1 (Homo sapiens)
# test_description: Inhibition of Bcl-XL-mediated cell death reduction expressed in serum starved mouse 3T3 cells assessed as residual cell viability at 5 uM incubated for 96 hrs by propidium iodide staining based FACS method
# condition_label: NIH3T3
property_measured: Activity (%)
Value expressed in %; do not type the unit.

Please review the entries below; each comes with its answer.
structure_as_smiles	target_desc	property_measured	value
CC(C)c1cc(-c2cc3ccccc3nc2N2CCCC2)cc2nc(N3CCCC3)ccc12	Bcl-2-like protein 1 (Homo sapiens)	Activity	4.37
CCOc1nc2ccccc2cc1-c1cc(C(C)C)c2cc(-c3cc(C(C)C)c4ccc(N5CCOCC5)nc4c3)c(OCC)nc2c1	Bcl-2-like protein 1 (Homo sapiens)	Activity	93.6
CCCOc1ccc2c(C(C)C)cc(-c3cc4c(C(C)C)cc(-c5cc6ccccc6nc5N5CCCC5)cc4nc3OCC)cc2n1	Bcl-2-like protein 1 (Homo sapiens)	Activity	96.4
CCOc1ccc2c(C(C)C)cc(-c3cc4ccccc4nc3N3CCOCC3)cc2n1	Bcl-2-like protein 1 (Homo sapiens)	Activity	37.9
CCCOc1nc2ccccc2cc1-c1cc(C(C)C)c2cc(-c3cc(C(C)C)c4ccc(N5CCCC5)nc4c3)c(OCCC)nc2c1	Bcl-2-like protein 1 (Homo sapiens)	Activity	94.6

Exercise: Give its Activity value. Item: CC(C)c1cc(-c2cc3ccccc3nc2N2CCOCC2)cc2nc(N3CCOCC3)ccc12
Key: 67.9

====

# target_desc: Bcl-2-like protein 1 (Homo sapiens)
# test_description: Inhibition of GST-tagged recombinant Bcl-XL interaction with biotinylated Bim peptide by ELISA based competitive binding assay
property_measured: EC50

Consider the reported EC50 for these compounds:
structure_as_smiles	EC50
CC(C)c1cc(-c2cc3ccccc3nc2N2CCCC2)cc2nc(N3CCCC3)ccc12	> 100 µM
CCCOc1ccc2c(C(C)C)cc(-c3cc4ccccc4nc3N3CCOCC3)cc2n1	> 100 µM

Now consider a different compound.
Exercise: So what's the measured EC50 for this one? CCCOc1nc2ccccc2cc1-c1cc(C(C)C)c2ccc(N3CCOCC3)nc2c1
Key: > 100 µM

====

# target_desc: Bcl-2-like protein 1 (Homo sapiens)
# test_description: Inhibition of Bcl-XL-mediated cell death reduction expressed in serum starved mouse 3T3 cells assessed as residual cell viability at 5 uM incubated for 96 hrs by propidium iodide staining based FACS method
# condition_label: NIH3T3
property_measured: Activity (%)
Form entry: value (%) — number only.

structure_as_smiles	target_desc	reading_unit	value
CCCOc1nc2ccccc2cc1-c1cc(C(C)C)c2ccc(N3CCOCC3)nc2c1	Bcl-2-like protein 1 (Homo sapiens)	%	55.5
CCOc1nc2cc(-c3cc4ccccc4nc3N3CCOCC3)cc(C(C)C)c2cc1-c1cc(C(C)C)c2ccc(N3CCOCC3)nc2c1	Bcl-2-like protein 1 (Homo sapiens)	%	96.5
CCCOc1nc2cc(-c3cc4ccccc4nc3N3CCCC3)cc(C(C)C)c2cc1-c1cc(C(C)C)c2ccc(OCC)nc2c1	Bcl-2-like protein 1 (Homo sapiens)	%	94.5
CCCOc1ccc2c(C(C)C)cc(-c3cc4c(C(C)C)cc(-c5cc6ccccc6nc5N5CCCC5)cc4nc3OCCC)cc2n1	Bcl-2-like protein 1 (Homo sapiens)	%	92.8

Exercise: Quick check: Activity of CCCOc1ccc2c(C(C)C)cc(-c3cc4ccccc4nc3N3CCCC3)cc2n1 ?
Key: 84.4

Exercise: Please report the recorded Activity for CCOc1ccc2c(C(C)C)cc(-c3cc4ccccc4nc3N3CCCC3)cc2n1 .
Key: 0.42

====

# target_desc: Bcl-2-like protein 1 (Homo sapiens, UniProt Q07817)
# test_description: Inhibition of Bcl-XL-mediated cell death reduction expressed in serum starved mouse 3T3 cells assessed as residual cell viability at 5 uM incubated for 96 hrs by propidium iodide staining based FACS method
# condition_label: NIH3T3
# maps each entry to its Activity
Report the value in % with no unit label.

structure_as_smiles	Activity (%)
CCCOc1nc2cc(-c3cc4ccccc4nc3N3CCCC3)cc(C(C)C)c2cc1-c1cc(C(C)C)c2ccc(N3CCCC3)nc2c1	90.5
CCCOc1ccc2c(C(C)C)cc(-c3cc4c(C(C)C)cc(-c5cc6ccccc6nc5N5CCOCC5)cc4nc3OCCC)cc2n1	92.3
CCOc1nc2cc(-c3cc4ccccc4nc3N3CCCC3)cc(C(C)C)c2cc1-c1cc(C(C)C)c2ccc(N3CCOCC3)nc2c1	91
CCOc1nc2cccc(C(C)C)c2cc1-c1cc(C(C)C)c2ccc(N3CCOCC3)nc2c1	70.3
CCOc1nc2cc(-c3cc4ccccc4nc3N3CCOCC3)cc(C(C)C)c2cc1-c1cc(C(C)C)c2ccc(N3CCCC3)nc2c1	92.2
CCOc1nc2ccccc2cc1-c1cc(C(C)C)c2cc(-c3cc(C(C)C)c4ccc(N5CCCC5)nc4c3)c(OCC)nc2c1	92.3

Please look at the following molecule next.
Exercise: Write down the reported Activity of CCOc1nc2cccc(C(C)C)c2cc1-c1cc(C(C)C)c2ccc(N3CCCC3)nc2c1 , test system: Bcl-2-like protein 1 (Homo sapiens, UniProt Q07817).
Key: 91.6
